molecular target: KAT2A (Homo sapiens); test: KAT2A degradation, Western Blot (Jess), NCI-H1048 cells; assay type: cell-based; parameters: degrader, Western blot (Jess); conditions: NCI-H1048 cells, KAT2A, 24 h, Western Blot, vs DMSO; read-out: KAT2A NCI-H1048 DC50
Sequence (Q92830 whole entry): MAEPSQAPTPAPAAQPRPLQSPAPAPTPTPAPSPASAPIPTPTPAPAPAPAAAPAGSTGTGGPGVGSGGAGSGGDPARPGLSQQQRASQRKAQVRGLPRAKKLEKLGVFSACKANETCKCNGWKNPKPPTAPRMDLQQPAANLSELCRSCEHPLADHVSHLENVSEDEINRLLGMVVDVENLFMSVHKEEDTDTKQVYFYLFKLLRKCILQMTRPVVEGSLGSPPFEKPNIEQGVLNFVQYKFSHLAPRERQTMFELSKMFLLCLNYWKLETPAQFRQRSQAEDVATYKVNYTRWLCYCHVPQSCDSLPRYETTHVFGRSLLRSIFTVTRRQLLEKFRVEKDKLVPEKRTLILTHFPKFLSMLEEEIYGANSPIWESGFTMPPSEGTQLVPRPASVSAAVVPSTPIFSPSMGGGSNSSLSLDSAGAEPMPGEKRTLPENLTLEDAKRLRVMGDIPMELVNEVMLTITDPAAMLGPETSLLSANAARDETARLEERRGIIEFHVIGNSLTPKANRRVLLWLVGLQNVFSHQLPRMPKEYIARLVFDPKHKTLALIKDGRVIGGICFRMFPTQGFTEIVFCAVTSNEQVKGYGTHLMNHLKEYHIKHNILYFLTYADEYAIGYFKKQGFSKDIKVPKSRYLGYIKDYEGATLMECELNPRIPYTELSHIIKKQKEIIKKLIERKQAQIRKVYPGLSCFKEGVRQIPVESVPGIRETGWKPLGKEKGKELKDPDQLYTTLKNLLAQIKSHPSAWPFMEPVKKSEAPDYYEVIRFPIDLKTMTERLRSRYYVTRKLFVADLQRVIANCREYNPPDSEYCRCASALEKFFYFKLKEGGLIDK
endpoint.label: DC50

Use the examples below as a reference point.
molecule | endpoint.label | test.result
CN1C[C@H](Nc2cnn(C)c(=O)c2Cl)C[C@H](c2ccc(C(=O)N3CCC(c4ccc5c(C6CCC(=O)NC6=O)nccc5c4)CC3)cc2)C1 (stereo partly drawn) | DC50 | < 1 nM
CN1C[C@H](Nc2cnn(C)c(=O)c2Cl)C[C@H](c2ccc(CN3C4CC3CN(c3cccc(C5CCC(=O)NC5=O)c3)C4)cc2)C1 (stereo partly drawn) [Compound 369] | DC50 | 1 to 30 nM

Kindly consider the entry below.
Can you share its DC50? I mean this molecule: Cc1nnc2c3ccccc3c(N[C@@H](C)[C@H](c3ccc(C(=O)N4CCC5(CC4)CCN(c4ccc(C6CCC(=O)NC6=O)cc4)CC5)cc3)N(C)C)nn12 (stereo partly drawn) 1 to 30 nM

###

biological target: KAT2B (Homo sapiens); assay: KAT2B degradation, Western Blot (Jess), NCI-H1048 cells; assay type: cell-based; set-up: degrader, Western blot (Jess); settings: NCI-H1048 cells, KAT2B, 24 h, Western Blot, vs DMSO; read-out: KAT2B NCI-H1048 DC50
endpoint.label: DC50

compound | DC50
Cc1ncsc1-c1ccc(CNC(=O)[C@@H]2C[C@@H](O)CN2C(=O)[C@@H](NC(=O)CN2CCC(N3CCN(C(=O)c4ccc([C@H]5C[C@@H](Nc6cnn(C)c(=O)c6Br)CN(C)C5)cc4)CC3)CC2)C(C)(C)C)cc1 [Compound 409] | > 30 nM
CN1C[C@H](Nc2cnn(C)c(=O)c2Br)C[C@H](c2ccc(CN3CCC(Oc4ccc(C5CCC(=O)NC5=O)cc4F)CC3)cc2)C1 (stereo partly drawn) [Compound 125] | > 30 nM

Kindly consider the entry below.
Can you share its DC50? I mean this compound: CN1C[C@H](Nc2cnn(C)c(=O)c2Br)C[C@H](c2ccc(CN3CC(c4ccc5c(c4)C(=O)N(C4CCC(=O)NC4=O)C5=O)C3)cc2)C1 (stereo partly drawn) [Compound 202] > 30 nM

###

target: KAT2B (Homo sapiens, UniProt Q92831); assay: KAT2B degradation, Western Blot (Jess), NCI-H1048 cells; format: cell-based; set-up: degrader, Western blot (Jess); conditions: NCI-H1048 cells, KAT2B, 24 h, Western Blot, vs DMSO; read-out: KAT2B NCI-H1048 DC50
Sequence (Q92831 whole entry): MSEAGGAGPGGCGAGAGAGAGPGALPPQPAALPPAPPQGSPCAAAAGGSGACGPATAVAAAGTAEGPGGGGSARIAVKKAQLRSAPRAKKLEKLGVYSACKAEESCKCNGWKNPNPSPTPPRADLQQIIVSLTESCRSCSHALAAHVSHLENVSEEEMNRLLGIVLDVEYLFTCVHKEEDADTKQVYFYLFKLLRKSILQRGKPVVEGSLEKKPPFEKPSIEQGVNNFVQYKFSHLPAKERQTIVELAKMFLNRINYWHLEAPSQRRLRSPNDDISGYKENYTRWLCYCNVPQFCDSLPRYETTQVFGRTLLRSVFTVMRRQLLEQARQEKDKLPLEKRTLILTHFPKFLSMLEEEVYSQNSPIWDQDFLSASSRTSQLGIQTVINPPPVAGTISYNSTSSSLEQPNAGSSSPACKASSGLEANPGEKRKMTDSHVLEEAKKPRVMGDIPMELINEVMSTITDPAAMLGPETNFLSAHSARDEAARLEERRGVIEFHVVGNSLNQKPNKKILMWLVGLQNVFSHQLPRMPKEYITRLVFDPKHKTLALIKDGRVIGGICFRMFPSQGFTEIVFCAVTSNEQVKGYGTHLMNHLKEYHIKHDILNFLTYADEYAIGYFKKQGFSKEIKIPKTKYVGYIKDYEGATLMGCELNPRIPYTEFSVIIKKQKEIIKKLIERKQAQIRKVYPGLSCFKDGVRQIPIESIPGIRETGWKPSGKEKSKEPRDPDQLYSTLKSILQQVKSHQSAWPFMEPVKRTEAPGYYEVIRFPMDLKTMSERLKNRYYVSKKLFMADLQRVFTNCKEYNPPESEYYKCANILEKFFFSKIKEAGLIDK
endpoint.label: DC50

molecule | test.result
Cc1cc(C2CCC(=O)NC2=O)c(F)cc1N1CCC2(CCN(C(=O)c3ccc([C@H]4C[C@@H](Nc5cnn(C)c(=O)c5Br)CN(C)C4)cc3)CC2)CC1 (stereo partly drawn) | 1 to 30 nM
Cc1cc(N2CCC3(CCN(C(=O)c4ccc([C@H]5C[C@@H](Nc6cnn(C)c(=O)c6Br)CN(C)C5)cc4)CC3)CC2)ccc1C1CCC(=O)NC1=O (stereo partly drawn) [Compound 167] | < 1 nM
Cc1c(N[C@@H]2C[C@H](c3ccc(C(=O)N4CCC5(CC4)CCN(c4ccc(C6CCC(=O)NC6=O)c(F)c4)CC5)cc3)CN(C)C2)cnn(C)c1=O (stereo partly drawn) [Compound 316] | < 1 nM
Cc1c(N[C@@H]2C[C@H](c3ccc(CN4CCN(c5ccc6c(c5)C(=O)N(C5CCC(=O)NC5=O)C6=O)CC4)cc3)CN(C)C2)cnn(C)c1=O (stereo partly drawn) | 1 to 30 nM
Cc1cc(C2CCC(=O)NC2=O)ccc1N1CCC2(CCN(C(=O)c3ccc([C@H]4C[C@@H](Nc5cnn(C)c(=O)c5C)CN(C)C4)cc3)CC2)CC1 (stereo partly drawn) | 1 to 30 nM

Kindly consider the entry below.
DC50 of CN1C[C@H](Nc2cnn(C)c(=O)c2Cl)C[C@H](c2ccc(C(=O)N3CC(c4cccc(C5CCC(=O)NC5=O)c4)C3)cc2)C1 (stereo partly drawn) on KAT2B (Homo sapiens, UniProt Q92831)? > 30 nM

###

target: KAT2B (Homo sapiens); assay: KAT2B degradation, Western Blot (Jess), NCI-H1048 cells; type: cell-based; design: degrader, Western blot (Jess); conditions: NCI-H1048 cells, KAT2B, 24 h, Western Blot, vs DMSO; read-out: KAT2B NCI-H1048 DC50
endpoint.label: DC50

Use the examples below as a reference point.
compound | DC50
Cc1cc(N2CCC(N3CCN(C(=O)c4ccc([C@H]5C[C@@H](Nc6cnn(C)c(=O)c6Cl)CN(C)C5)cc4)CC3)CC2)ccc1C1CCC(=O)NC1=O (some centres unmarked) | > 30 nM
CN1C[C@H](Nc2cnn(C)c(=O)c2Cl)C[C@H](c2ccc(C(=O)N3CCC4(CC3)CCN(c3ccc5c(C6CCC(=O)NC6=O)nn(C)c5c3)CC4)cc2)C1 (some centres unmarked) | < 1 nM
CN1C[C@H](Nc2cnn(C)c(=O)c2Br)C[C@H](c2ccc(C(=O)N3CC(c4ccc5c(c4)C(=O)N(C4CCC(=O)NC4=O)C5=O)C3)cc2)C1 (some centres unmarked) | > 30 nM
Cc1c(N[C@@H]2C[C@H](c3ccc(C(=O)N4CCC5(CC4)CCN(c4ccc(C6CCC(=O)NC6=O)c(F)c4)CC5)cc3)CN(C)C2)cnn(C)c1=O (some centres unmarked) [Compound 229] | < 1 nM

Can you share its DC50? I mean this compound: Cc1c(N2CCC3(CCN(C(=O)c4ccc([C@H]5C[C@@H](Nc6cnn(C)c(=O)c6C)CN(C)C5)cc4)CC3)CC2)ccc(C2CCC(=O)NC2=O)c1F (some centres unmarked) 1 to 30 nM

Can you share its DC50? I mean this compound: Cc1cc(N2CC3(CCN(C(=O)c4ccc([C@H]5C[C@@H](Nc6cnn(C)c(=O)c6Cl)CN(C)C5)cc4)CC3)C2)ccc1C1CCC(=O)NC1=O (some centres unmarked) > 30 nM

Can you share its DC50? I mean this compound: CCn1ncc(N[C@@H]2C[C@H](c3ccc(C(=O)N4CCC5(CC4)CCN(c4ccc(C6CCC(=O)NC6=O)c(C)c4)CC5)cc3)CN(C)C2)c(Br)c1=O (some centres unmarked) < 1 nM

Can you share its DC50? I mean this compound: Cc1cc(N2CC(N3CCN(C(=O)c4ccc([C@H]5C[C@@H](Nc6cnn(C)c(=O)c6Br)CN(C)C5)cc4)CC3)C2)ccc1C1CCC(=O)NC1=O (some centres unmarked) 1 to 30 nM

Can you share its DC50? I mean this compound: Cc1c(N[C@@H]2C[C@H](c3ccc(CN4CCN(c5cc6c(cc5F)C(=O)N(C5CCC(=O)NC5=O)C6=O)CC4)cc3)CN(C)C2)cnn(C)c1=O (some centres unmarked) > 30 nM

Can you share its DC50? I mean this compound: CN1C[C@H](Nc2cnn(C)c(=O)c2Cl)C[C@H](c2ccc(CN3CCN(c4cccc(C5CCC(=O)NC5=O)c4)CC3)cc2)C1 (some centres unmarked) [Compound 361] 1 to 30 nM

Can you share its DC50? I mean this compound: CN1C[C@H](Nc2cnn(C)c(=O)c2Br)C[C@H](c2ccc(C(=O)N3CCC4(CC3)CCN(c3ccc(C5CCC(=O)NC5=O)cc3)CC4)cc2)C1 (single isomer, unassigned) [Compound 239] < 1 nM

###

target: KAT2B (Homo sapiens, UniProt Q92831); test: KAT2B degradation, Western Blot (Jess), NCI-H1048 cells; type: cell-based; set-up: degrader, Western blot (Jess); details: NCI-H1048 cells, KAT2B, 24 h, Western Blot, vs DMSO; read-out: KAT2B NCI-H1048 DC50
endpoint.label: DC50

DC50 of Cc1cc(N2CCC3(CCN(C(=O)c4ccc([C@H]5C[C@@H](Nc6cnn(C)c(=O)c6C)CN(C)C5)cc4)CC3)CC2)cnc1C1CCC(=O)NC1=O (stereo partly shown) [Compound 245] on KAT2B (Homo sapiens, UniProt Q92831)? 1 to 30 nM

###

molecular target: KAT2B (Homo sapiens); test: KAT2B degradation, Western Blot (Jess), NCI-H1048 cells; assay type: cell-based; parameters: degrader, Western blot (Jess); details: NCI-H1048 cells, KAT2B, 24 h, Western Blot, vs DMSO; read-out: KAT2B NCI-H1048 DC50
Entries and their DC50 values follow.

Use the examples below as a reference point.
compound | DC50
CN1CC(Nc2cnn(C)c(=O)c2Cl)CC(c2ccc(CN3CCN(c4cccc(OC5CCC(=O)NC5=O)c4)CC3)cc2)C1 (stereo not drawn) | > 30 nM
CN1C[C@H](Nc2cnn(C)c(=O)c2Br)C[C@H](c2ccc(C(=O)N3CCC4(CC3)CCN(c3cnc(C(=O)NC5CCC(=O)NC5=O)c(F)c3)CC4)cc2)C1 (stereo partly drawn) | 1 to 30 nM

Can you share its DC50? I mean this compound: CN1C[C@H](Nc2cnn(C)c(=O)c2Br)C[C@H](c2ccc(CN3CCN(c4ccnc(C5CCC(=O)NC5=O)c4)CC3)cc2)C1 (stereo partly drawn) > 30 nM
